- assay-system: 5-HT2B (Homo sapiens)
- Sequence (P41595 whole entry): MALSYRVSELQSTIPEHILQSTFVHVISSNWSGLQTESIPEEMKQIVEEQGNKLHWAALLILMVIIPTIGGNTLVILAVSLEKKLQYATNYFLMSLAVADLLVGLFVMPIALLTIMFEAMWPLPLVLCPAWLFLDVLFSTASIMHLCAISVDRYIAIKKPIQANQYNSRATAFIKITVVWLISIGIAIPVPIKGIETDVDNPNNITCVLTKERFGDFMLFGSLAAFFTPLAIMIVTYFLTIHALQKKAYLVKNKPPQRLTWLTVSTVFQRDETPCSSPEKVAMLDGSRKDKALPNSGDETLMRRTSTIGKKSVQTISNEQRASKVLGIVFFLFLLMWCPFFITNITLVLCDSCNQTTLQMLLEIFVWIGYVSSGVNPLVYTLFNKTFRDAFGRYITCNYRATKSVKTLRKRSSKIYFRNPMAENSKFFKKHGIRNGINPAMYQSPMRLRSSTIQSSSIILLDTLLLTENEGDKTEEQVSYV
// reported Ki per item
Enter your answer as a number in nM; do not include the unit.

> print(dat)
                                   compound  observed.result
1  CCCn1cc(CCN(C)C)c2c(O)ccc(F)c21 [Compound O-3952]             2.79

QUERY: Kindly state the measured Ki obtained for CN(C)CCc1cn(CCF)c2c(F)ccc(O)c12 [Compound O-3975] with 5-HT2B (Homo sapiens).
RESULT: 2.77

QUERY: I'm curious: which Ki was measured for CN(C)CCc1cn(C)c2c(F)ccc(O)c12 [Compound O-3804] tested on 5-HT2B (Homo sapiens)?
RESULT: 3.64

QUERY: Lab note: need Ki for CCn1cc(CCN(C)C)c2c(O)ccc(F)c21 [Compound O-3943] on 5-HT2B (Homo sapiens), anyone have it?
RESULT: 2.5
